Assay: recombinant UMI read abundance after kanamycin selection (control-corrected) (log10(CPM+1)); higher = more efficient recombination; extreme values may be limits of the assay; sequences stand for … in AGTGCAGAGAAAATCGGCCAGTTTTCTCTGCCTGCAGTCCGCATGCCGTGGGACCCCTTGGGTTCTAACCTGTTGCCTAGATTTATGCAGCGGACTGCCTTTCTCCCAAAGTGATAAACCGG…AGGTTGGTTTCACT; site = the 11-nt donor;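 also: IS621 bridge recombinase in Escherichia coli cells against a fixed T5 target plasmid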
# cutoff 2 applies to recombinant UMI read abundance (log10); >= gives Criterion met, < gives Criterion not met

{"columns": ["SEQUENCE_DATA", "CATEGORY_LABEL"],
 "data": [
  ["CGCCTAGCATGGACCGGTTTTCCCGGTAATCCGTATTTGTT (site GGCCTAGCTAA)", "Criterion not met"],
  ["CGAGGACCATGGACCGGTTTTCCCGGTAATCCGTATTTGTG (site CGAGGACCTCA)", "Criterion not met"],
  ["ACATGAACATGGACCGGTTTTCCCGGTAATCCGTATTTGAC (site ACATGAACTGT)", "Criterion met"],
  ["ATGAAGGCATGGACCGGTTTTCCCGGTAATCCGTATTTGGC (site ATGGAGGCTGC)", "Criterion met"],
  ["CCCAATACATGGACCGGTTTTCCCGGTAATCCGTATTTGGC (site CCAAATACTGC)", "Criterion not met"],
  ["TCCCTACCATGGACCGGTTTTCCCGGTAATCCGTATTTGAT (site TCCCTACCTAT)", "Criterion not met"],
  ["AACGGAACATGGACCGGTTTTCCCGGTAATCCGTATTTGAT (site AACGGAACTAT)", "Criterion met"],
  ["CCTCCGGCATGGACCGGTTTTCCCGGTAATCCGTATTTGGT (site CCTCCGGCTAC)", "Criterion not met"]
]}
